# target-or-test-system: Acetylcholinesterase (Homo sapiens) (UniProt P22303)
# Sequence (P22303 whole entry, looked up): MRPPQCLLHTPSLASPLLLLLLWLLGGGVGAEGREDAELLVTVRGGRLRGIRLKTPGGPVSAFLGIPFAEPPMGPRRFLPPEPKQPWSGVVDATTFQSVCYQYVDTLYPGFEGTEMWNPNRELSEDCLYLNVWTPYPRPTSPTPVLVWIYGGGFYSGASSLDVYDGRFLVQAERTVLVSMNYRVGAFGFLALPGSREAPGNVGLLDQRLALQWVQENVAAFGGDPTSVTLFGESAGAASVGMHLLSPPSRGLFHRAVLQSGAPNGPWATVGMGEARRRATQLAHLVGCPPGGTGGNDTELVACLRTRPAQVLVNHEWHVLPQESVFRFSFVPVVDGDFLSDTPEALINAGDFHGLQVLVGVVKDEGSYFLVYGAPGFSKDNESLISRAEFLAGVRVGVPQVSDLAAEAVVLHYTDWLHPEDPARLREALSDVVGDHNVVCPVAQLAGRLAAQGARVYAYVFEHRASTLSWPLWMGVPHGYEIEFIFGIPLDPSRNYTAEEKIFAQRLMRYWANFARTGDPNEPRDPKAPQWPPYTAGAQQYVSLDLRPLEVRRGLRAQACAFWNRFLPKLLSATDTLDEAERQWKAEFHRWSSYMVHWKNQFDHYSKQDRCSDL
# measurement-notes: Acetylcholinesterase (AChE) small molecule antagonists: enzyme-based qHTS assay with human liver microsomes (AID 1347399); further: nearly all actives have a fitted effect of over 60% in size
# measurement-setup: qHTS inhibition; series mostly up to 115 µM
Active and inactive are the calls of the source. The call rests on the fitted dose curve.
Your answer must be one of the following: 1.0 = active, 0.0 = inactive

compound	classification
CCCCCOc1ccc(C2SC(=O)NC2=O)cc1OCC (stereo not given)	0.0
CCN(Cc1ccccc1)c1ccccc1	0.0
C=C(C)OC(C)=O	0.0

Now consider the entry below.
Please let me know the test result on file for `O=C(O)c1ccc(-n2nc(-c3ccccc3O)nc2-c2ccccc2O)cc1` .
0.0

###

# target-or-test-system: Acetylcholinesterase (Homo sapiens) (UniProt P22303)
# measurement-notes: Acetylcholinesterase (AChE) small molecule antagonists: enzyme-based qHTS assay with human liver microsomes (AID 1347399); further: nearly all actives have a fitted effect of over 60% in size
# measurement-setup: qHTS inhibition; series mostly up to 115 µM
# Source text: National Center for Advancing Translational Sciences [NCATS] Division of Preclinical Innovation [DPI] U.S. Environmental Protection Agency [EPA] National Institutes of Environmental Health Sciences [NIEHS] National Toxicology Program [NTP] U.S. Food and Drug Administration [FDA] Acetylcholinesterase (AChE) is the primary cholinesterase in the body that hydrolyzes a key neurotransmitter, acetylcholine. Inhibition of AChE activity can lead to neurotoxicity. […]
Calls of active or inactive are those of the source. Calls follow the shape of the full dose curve.
Your answer must be one of the following: active, inactive

Here's what some known entries look like.
compound	classification
CN1C(CCl)Nc2cc(Cl)c(S(N)(=O)=O)cc2S1(=O)=O (stereo unspecified)	inactive
Cc1cc(Nc2ccc(O)cc2)ccc1N	inactive
CC(=O)O[Si](C)(OC(C)=O)OC(C)=O	inactive
CNC(=O)Oc1cc(C)c(SC)c(C)c1	active
CN(C)c1ccc(CCO)cc1	inactive

Now consider the entry below.
Please let me know the test result on file for `CN1N=C(C(N)=O)CCC1=O` .
inactive
